Each item that follows carries a reported inhibition at 100 µM.
Target: A2a receptors (Rattus norvegicus)
Construct: Displacement of specific [^3 H]; from tissue; host or cells: rat striatal membranes
Sequence (P30543 whole entry): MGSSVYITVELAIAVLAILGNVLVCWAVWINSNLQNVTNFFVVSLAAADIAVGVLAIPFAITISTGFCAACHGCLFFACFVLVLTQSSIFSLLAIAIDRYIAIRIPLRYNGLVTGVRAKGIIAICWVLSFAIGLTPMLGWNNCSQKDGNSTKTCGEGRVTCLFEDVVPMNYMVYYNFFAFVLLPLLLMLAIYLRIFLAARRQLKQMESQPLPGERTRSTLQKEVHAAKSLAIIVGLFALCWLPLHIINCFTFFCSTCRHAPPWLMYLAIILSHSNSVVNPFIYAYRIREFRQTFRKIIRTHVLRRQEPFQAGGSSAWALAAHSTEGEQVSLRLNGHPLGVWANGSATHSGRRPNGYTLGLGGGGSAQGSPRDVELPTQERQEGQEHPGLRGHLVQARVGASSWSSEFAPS
Assay: radioligand binding, displacement of specific [3H]CGS 21680 binding in rat striatal membranes
Conditions: Table 12; 10^-4 M; read-out: % inhibition rA2A

Example results:
# compound, result
data = [
    ("CCOC(=O)C1=C(C)NC(c2ccccc2)=C(C(=O)OCC)C1/C=C/c1ccc([N+](=O)[O-])cc1 (stereo not shown)", "26%"),
    ("CCOC(=O)C1=C(C)NC(c2ccccc2)=C(C(=O)OCC[Si](C)(C)C)C1C#Cc1ccccc1 (racemic)", "18%"),
    ("CCOC(=O)C1=C(C)NC(c2ccccc2)=C(C(=O)OCc2ccc(C(F)(F)F)cc2)C1C#Cc1ccccc1 (racemic) [Compound 122d]", "15%"),
    ("CCOC(=O)C1=C(C)NC(c2ccccc2)=C(C(=O)OCC)C1c1ccccn1 (racemic)", "25%"),
    ("CCNC(=O)C1=C(C)NC(c2ccccc2)=C(C(=O)OCC)C1C#Cc1ccccc1 (racemic)", "19%"),
]

Lab note: CCOC(=O)C1=C(c2ccccc2)NC2=C(C(=O)CCC2)C1C#Cc1ccccc1 (racemic) gave inhibition at 100 µM of 22%

Lab note: CCOC(=O)C1=C(C)NC(c2ccccc2)=C(C(=O)OCc2ccc(C)cc2)C1C#Cc1ccccc1 (racemic) [Compound 122c] gave inhibition at 100 µM of 17%

###

Target: A1 receptors (Rattus norvegicus, UniProt P25099)
Experiment: biochemical
Assay type: binding
Details: Table 7; [3H]PIA, rat brain membranes; read-out: Ki (rA1)
pKi: −log10 of the molar value.
Quick rule: pKi of at least 5 means Criterion met, below that means Criterion not met.

Query string: Form field: pKi at least 5? Entry: COc1cc2c3c(c1)c1cc4c(cc1c(=O)n3CC2)OCO4 [Compound 47, oxogalanthine lactam, reference compound]
Result string: Criterion met

Query string: Form field: pKi at least 5? Entry: Oc1cc2c(cc1O)[C@@H]1c3ccc(O)c(O)c3OC[C@]1(O)C2 [Compound 50, hematoxylin, reference compound]
Result string: Criterion met

Query string: Form field: pKi at least 5? Entry: O=c1cc(-c2ccccc2)oc2c1ccc1ccccc12 [Compound 43, α-naphthoflavone, reference compound]
Result string: Criterion met

Query string: Form field: pKi at least 5? Entry: COC1C=CC23c4cc5c(cc4C[N+](C)(CC2OC(C)=O)C3C1)OCO5 (stereo not shown) [Compound 48, acetylhaemanthine methiodide, reference compound]
Result string: Criterion not met

###

Molecular target: A1 receptors (Rattus norvegicus, UniProt P25099)
Sequence (P25099 1-326): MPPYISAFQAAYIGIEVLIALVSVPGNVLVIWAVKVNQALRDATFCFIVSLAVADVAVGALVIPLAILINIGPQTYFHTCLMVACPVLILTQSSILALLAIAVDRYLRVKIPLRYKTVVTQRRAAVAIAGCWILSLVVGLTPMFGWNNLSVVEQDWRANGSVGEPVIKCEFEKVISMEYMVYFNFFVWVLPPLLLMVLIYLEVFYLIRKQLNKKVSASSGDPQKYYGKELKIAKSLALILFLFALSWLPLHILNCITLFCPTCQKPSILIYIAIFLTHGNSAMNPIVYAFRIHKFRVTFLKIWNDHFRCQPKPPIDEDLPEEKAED
Test: biochemical
Format: binding
Conditions: Table 5; [3H]PIA, rat brain membranes; read-out: Ki rA1
experimental readout: Ki (µM)
Could you give me the number in µM? Just the number is fine.

# compound, result number
rows = [
    ("CCOc1c2ccoc2cc2oc(/C=C/c3ccccc3)cc(=O)c12 [Compound 20, 4-ethyloxy-7-trans-styryl-visnagin]", 35.6),
]

Lab note: COc1c2ccoc2cc2oc(/C=C/c3ccccc3)cc(=O)c12 [Compound 19, 4-methyloxy-7-trans-styryl-visnagin] gave Ki of 32.6
